SUBJECT OF TEST: full length recombinant Pim-1 protein (Homo sapiens)
Construct: by full length recombinant Pim-1, Pim-2, or Pim-3 protein; hexahistidine tag followed by a thrombin cleavage site (N); made in house; host or cells: Sf9 (baculovirus) or E. coli (pET28)
Sequence (P11309 whole entry): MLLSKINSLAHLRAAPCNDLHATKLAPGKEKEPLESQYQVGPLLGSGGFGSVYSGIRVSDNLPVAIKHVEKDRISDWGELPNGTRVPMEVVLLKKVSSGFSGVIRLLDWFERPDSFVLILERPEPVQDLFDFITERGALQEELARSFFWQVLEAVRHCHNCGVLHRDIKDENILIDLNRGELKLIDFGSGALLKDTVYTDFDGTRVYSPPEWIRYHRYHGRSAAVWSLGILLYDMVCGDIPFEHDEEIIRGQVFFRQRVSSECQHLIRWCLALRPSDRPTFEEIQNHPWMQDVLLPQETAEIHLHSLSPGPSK
ASSAY PROTOCOL: Pim-1 enzyme assay (HTRF, phosphorylation of biotinylated-BAD (S112) peptide)
Assay type: biochemical
RUN CONDITIONS: enzyme assay, Pim-1; read-out: Pim_1_IC50
REPORTED PROPERTY: IC50 (nM)

A = Fc1cccnc1-c1ccc2[nH]nc(-c3cncc(O[C@@H]4CCCNC4)n3)c2c1 [Example 124]
B = CC(C)Oc1cncc(-c2ccc3[nH]cc(-c4cccc(N5CCOCC5)n4)c3c2)n1 [Example 220]
C = NC1CCN(c2cncc(-c3n[nH]c4ccc(-c5ccc6ncsc6c5)cc34)n2)CC1 [Example 52]
D = CC(C)Nc1nccc(-c2n[nH]c3ccc(-c4c(F)cccc4F)cc23)n1 [Example 193]
query: Number of compounds to sort: 4. Sort criterion: IC50, ascending. Would you mind listing the labels in the order asked for?
result: C, A, D, B
(C: 4 nM, A: 11 nM, D: 161 nM, B: 494 nM)
